Test system: rodent lifetime carcinogenesis bioassay, tumor incidence TD50
Assay: carcinogenic potency in animals, long-term in vivo studies, CPDB compilation (AID 1745844)
Details: rat; strain Fischer 344; males; in feed; site: thyroid gland; lesion: follicular-cell adenoma + follicular-cell carcinoma; dosed 103 weeks; study length 104 weeks
endpoint_name: TD50

- smiles_string: "CCNC(=S)NCC"
  endpoint_name: "TD50"
  reported_value: "24.3 mg/kg/day"
- smiles_string: "N=C1C=CC(=C(c2ccc(N)cc2)c2ccc(N)cc2)C=C1"
  endpoint_name: "TD50"
  reported_value: "57 mg/kg/day"

====

System: rodent lifetime carcinogenesis bioassay, tumor incidence TD50
Assay: carcinogenic potency in animals, long-term in vivo studies, CPDB compilation (AID 1745844)
Conditions: rat; strain Wistar; males; in feed; site: esophagus; lesion: squamous-cell papilloma; dosed 78 weeks; study length 78 weeks
endpoint_name: TD50 (mg/kg/day)

- molecule: "O=P(O)(OCC(Br)CBr)OCC(Br)CBr (stereo unspecified)"
  measure_unit: "mg/kg/day"
  reported_value: 16.5

====

System: rodent lifetime carcinogenesis bioassay, tumor incidence TD50
Assay: carcinogenic potency in animals, long-term in vivo studies, CPDB compilation (AID 1745844)
Details: rat; strain Fischer 344; females; in drinking water; site: Zymbal's gland; lesion: adenoma; dosed 91 weeks; study length 93 weeks
endpoint_name: TD50 (mg/kg/day)

- smiles_string: "COc1cc(-c2ccc(N)c(OC)c2)ccc1N"
  endpoint_name: "TD50"
  reported_value: 27.5

====

Test system: rodent lifetime carcinogenesis bioassay, tumor incidence TD50
Test: carcinogenic potency in animals, long-term in vivo studies, CPDB compilation (AID 1745844)
Settings: rat; strain Fischer 344; males; in drinking water; site: liver; lesion: hyperplastic nodule; dosed 102 weeks; study length 130 weeks

- smiles_string: "C=CC(OCC)OCC"
  TD50: "266 mg/kg/day"

====

Test system: rodent lifetime carcinogenesis bioassay, tumor incidence TD50
Assay: carcinogenic potency in animals, long-term in vivo studies, CPDB compilation (AID 1745844)
Conditions: rat; strain Fischer 344; males; in feed; site: peritoneum; lesion: fibrosarcoma + sarcoma, NOS; dosed 78 weeks; study length 104 weeks

- smiles_string: "Nc1ccc(S(=O)(=O)c2ccc(N)cc2)cc1"
  TD50: "56.3 mg/kg/day"

====

System: rodent lifetime carcinogenesis bioassay, tumor incidence TD50
Experiment: carcinogenic potency in animals, long-term in vivo studies, CPDB compilation (AID 1745844)
Conditions: mouse; strain B6C3F1; females; in feed; site: all sites; lesion: hemangiosarcoma; dosed 95 weeks; study length 99 weeks
endpoint_name: TD50

- smiles_string: "Cc1cc(Cl)ccc1N"
  endpoint_name: "TD50"
  reported_value: "42.3 mg/kg/day"

====

Tested on: rodent lifetime carcinogenesis bioassay, tumor incidence TD50
Assay: carcinogenic potency in animals, long-term in vivo studies, CPDB compilation (AID 1745844)
Settings: rat; strain Sprague-Dawley; females; i.p.; site: mammary gland; lesion: adenocarcinoma, NOS + adenoma, NOS; dosed 26 weeks; study length 86 weeks

- smiles_string: "CNNCc1ccc(C(=O)NC(C)C)cc1"
  TD50: "0.458 mg/kg/day"

====

Tested on: rodent lifetime carcinogenesis bioassay, tumor incidence TD50
Assay: carcinogenic potency in animals, long-term in vivo studies, CPDB compilation (AID 1745844)
Conditions: rat; strain Wistar; females; in drinking water; site: liver; lesion: cholangioma; dosed 104 weeks; study length 104 weeks

- molecule: "O=C1OC(O)C(C(Cl)Cl)=C1Cl (stereo unspecified)"
  TD50: "2.73 mg/kg/day"

====

Test system: rodent lifetime carcinogenesis bioassay, tumor incidence TD50
Assay: carcinogenic potency in animals, long-term in vivo studies, CPDB compilation (AID 1745844)
Details: rat; strain Fischer 344; males; in feed; site: any site (literature study); lesion: several types; types named in the paper; dosed 66 weeks; study length 66 weeks

- smiles_string: "Nc1c(Br)cc(Br)c2c1C(=O)c1ccccc1C2=O"
  tgt: "rodent lifetime carcinogenesis bioassay, tumor incidence TD50"
  TD50 / mg/kg/day: 193

====

Tested on: rodent lifetime carcinogenesis bioassay, tumor incidence TD50
Test: carcinogenic potency in animals, long-term in vivo studies, CPDB compilation (AID 1745844)
Settings: rat; strain Sas:MRC(WI)BR; females; in feed; site: liver; lesion: hepatocellular carcinoma; dosed 147 weeks; study length 151 weeks

- smiles_string: "Cc1ncc([N+](=O)[O-])n1CCO"
  TD50: "1860 mg/kg/day"

====

System: rodent lifetime carcinogenesis bioassay, tumor incidence TD50
Test: carcinogenic potency in animals, long-term in vivo studies, CPDB compilation (AID 1745844)
Conditions: rat; strain Fischer 344; males; in drinking water; site: liver + skin + Zymbal's gland; lesion: hepatocellular carcinoma + neoplastic nodule + basal-cell adenoma + basal-cell carcinoma + keratoacanthoma + sebaceous gland carci; dosed 104 weeks; study length 104 weeks

- smiles_string: "Cc1ccc(S(=O)(=O)Oc2ccc(N=Nc3ccc(-c4ccc(N=Nc5c(O)ccc6cc(S(=O)(=O)O)cc(S(=O)(=O)O)c56)c(C)c4)cc3C)cc2)cc1"
  TD50: "2.8 mg/kg/day"

====

Tested on: rodent lifetime carcinogenesis bioassay, tumor incidence TD50
Experiment: carcinogenic potency in animals, long-term in vivo studies, CPDB compilation (AID 1745844)
Conditions: mouse; strain B6C3F1; females; in feed; site: liver; lesion: hepatocellular adenoma; dosed 78 weeks; study length 104 weeks
endpoint_name: TD50 (mg/kg/day)

- compound: "C=C1C(CCl)(CCl)C2(Cl)C(Cl)C(Cl)C1(Cl)C2(Cl)Cl (stereo unspecified)"
  tgt: "rodent lifetime carcinogenesis bioassay, tumor incidence TD50"
  reported_value: 91.6

====

Tested on: rodent lifetime carcinogenesis bioassay, tumor incidence TD50
Assay: carcinogenic potency in animals, long-term in vivo studies, CPDB compilation (AID 1745844)
Conditions: mouse; strain B6C3F1; males; by gavage; site: adrenal medulla; lesion: pheochromocytoma, benign; dosed 103 weeks; study length 104 weeks
endpoint_name: TD50

- smiles_string: "COc1c(Cl)c(Cl)c(Cl)c(Cl)c1Cl"
  tgt: "rodent lifetime carcinogenesis bioassay, tumor incidence TD50"
  endpoint_name: "TD50"
  reported_value: "77.4 mg/kg/day"

====

System: rodent lifetime carcinogenesis bioassay, tumor incidence TD50
Assay: carcinogenic potency in animals, long-term in vivo studies, CPDB compilation (AID 1745844)
Conditions: rat; strain Fischer 344; females; inhaled; site: mammary gland; lesion: adenocarcinoma, NOS + adenoma, NOS + fibroadenoma; dosed 102 weeks; study length 104 weeks

- smiles_string: "ClCCl"
  TD50 [mg/kg/day]: 630

====

Test system: rodent lifetime carcinogenesis bioassay, tumor incidence TD50
Assay: carcinogenic potency in animals, long-term in vivo studies, CPDB compilation (AID 1745844)
Details: mouse; strain B6C3F1; females; in feed; site: ovary; lesion: mixed tumor, benign; dosed 103 weeks; study length 104 weeks

- smiles_string: "NC(=O)NN=Cc1ccc([N+](=O)[O-])o1"
  TD50: "30.8 mg/kg/day"

====

System: rodent lifetime carcinogenesis bioassay, tumor incidence TD50
Test: carcinogenic potency in animals, long-term in vivo studies, CPDB compilation (AID 1745844)
Details: mouse; strain B6C3F1; males; oral dosing; site: liver; lesion: hepatoma; dosed 79 weeks; study length 79 weeks

- molecule: "C=C1C(C)(C)[C@@]2(Cl)C(Cl)[C@]1(Cl)C(Cl)(Cl)C2(Cl)Cl (some centres not stated)"
  tgt: "rodent lifetime carcinogenesis bioassay, tumor incidence TD50"
  TD50: "4 mg/kg/day"
- molecule: "OCCN(CCO)C(=S)S"
  tgt: "rodent lifetime carcinogenesis bioassay, tumor incidence TD50"
  TD50: "34.5 mg/kg/day"

====

System: rodent lifetime carcinogenesis bioassay, tumor incidence TD50
Assay: carcinogenic potency in animals, long-term in vivo studies, CPDB compilation (AID 1745844)
Conditions: rat; strain Sprague-Dawley; males; in drinking water; site: liver; lesion: hyperplastic nodule; dosed 130 weeks; study length 130 weeks

- smiles_string: "CCO"
  tgt: "rodent lifetime carcinogenesis bioassay, tumor incidence TD50"
  TD50 (mg/kg/day): 8260

====

Tested on: rodent lifetime carcinogenesis bioassay, tumor incidence TD50
Experiment: carcinogenic potency in animals, long-term in vivo studies, CPDB compilation (AID 1745844)
Conditions: mouse; strain Swiss albino; females; by gavage; site: gall bladder; lesion: adenoma; dosed 53 weeks; study length 127 weeks
endpoint_name: TD50 (mg/kg/day)

- smiles_string: "CC(C)C/C=N/N(C)C=O"
  endpoint_name: "TD50"
  reported_value: 36.5

====

Test system: rodent lifetime carcinogenesis bioassay, tumor incidence TD50
Assay: carcinogenic potency in animals, long-term in vivo studies, CPDB compilation (AID 1745844)
Settings: rat; strain Fischer 344; males; in feed; site: spleen; lesion: sarcoma, NOS; dosed 78 weeks; study length 104 weeks
endpoint_name: TD50

- smiles_string: "Nc1ccc(S(=O)(=O)c2ccc(N)cc2)cc1"
  reported_value: "170 mg/kg/day"

====

Tested on: rodent lifetime carcinogenesis bioassay, tumor incidence TD50
Assay: carcinogenic potency in animals, long-term in vivo studies, CPDB compilation (AID 1745844)
Details: rat; strain Fischer 344; males; in drinking water; site: skin; lesion: squamous-cell carcinoma + squamous-cell papilloma; dosed 97 weeks; study length 97 weeks
endpoint_name: TD50

- smiles_string: "COc1cc(-c2ccc(N=Nc3c(S(=O)(=O)O)cc4cc(S(=O)(=O)O)cc(N)c4c3O)c(OC)c2)ccc1N=Nc1c(S(=O)(=O)O)cc2cc(S(=O)(=O)O)cc(N)c2c1O"
  reported_value: "51 mg/kg/day"
